Reference for the values: paper PMC4831585

Target: MoaA G340A (Staphylococcus aureus, UniProt P69848, G340A)
Test: Anaerobic ITC, G340A-MoaA
measured_metric: Kd (µM)
Answers are plain numbers, in µM.

// query Quick one: give measured Kd for Nc1nc2c(ncn2[C@@H]2O[C@H](COP(=O)(O)OP(=O)(O)OP(=O)(O)O)[C@@H](O)[C@H]2O)c(=O)[nH]1 [GTP, Guanosine 5′-triphosphate]
// result 5.2

====

For each of the molecules below, state its pKd.
Target: wt-MoaA (Staphylococcus aureus, UniProt P69848)
Answers are plain numbers, as −log10 of the molar value.

{"molecule": "C[S+](CC[C@H](N)C(=O)[O-])C[C@H]1O[C@@H](n2cnc3c(N)ncnc32)[C@H](O)[C@@H]1O (some centres unmarked)", "data_value": 5.77}

Now for another entry.
// query Quick one: give measured pKd for Nc1nc2c(ncn2[C@@H]2O[C@H](COP(=O)(O)OP(=O)(O)OP(=O)(O)O)[C@@H](O)[C@H]2O)c(=O)[nH]1 [GTP, Guanosine 5′-triphosphate]
// result 5.30

====

Target: MoaA G339A (Staphylococcus aureus, UniProt P69848, G339A)
Assay: Anaerobic ITC, G339A-MoaA
measured_metric: pKd
Answers are plain numbers, as −log10 of the molar value.

// query Look up and report measured pKd (MoaA G339A (Staphylococcus aureus, UniProt P69848, G339A)) for the following compound: Nc1nc2c(ncn2[C@@H]2O[C@H](COP(=O)(O)OP(=O)(O)OP(=O)(O)O)[C@@H](O)[C@H]2O)c(=O)[nH]1 [GTP, Guanosine 5′-triphosphate]
// result 6.34

====

Target: R330A/K331A/K332A-MoaA (Staphylococcus aureus, UniProt P69848, K331A/K332A/R330A)
Experiment: MoaA/MoaC coupled assay / peptide rescue, R330A/K331A/K332A-MoaA
Assay type: biochemical
Conditions: Kd (peptide titration, figure legend), Figure 4B, nonlinear fit to Hill equation
Ends that are not written are not given here.
measured_metric: pKd
One number for each entry, as −log10 of the molar value.

// query Quick one: give measured pKd for RKKINMNYIGG [11-mer wt peptide]
// result 3.76
